Test system: OVCAR-3
Test Protocol: NCI tumour cell line growth inhibition, 48 h
Calls of active or inactive are those of the source. Cut-off read from the data, not from the text of the source: active = GI50 up to about 1.1 µM and inactive = higher.
Answer with one of the outcomes yes (1) for active, no (0) for inactive

INSERT INTO measurements (molecule, class_assignment) VALUES
  ('O=C1CSC(c2cccc(Oc3ccccc3)c2)N1c1ccc(Cl)cc1 (centres undefined)', 'no (0)'),
  ('O=[N+]([O-])c1cccc(C2=NOC3CCCC23)c1 (centres undefined)', 'no (0)');

input: Assay outcome for Cc1cc(NS(=O)(=O)c2ccc(NC(=O)c3cccn4c(=O)c5ccccc5nc34)cc2)no1 : what was it?
output: no (0)

input: Same question, Cc1nc2sccn2c1/C=C1/C(=O)Nc2cccc(Cl)c21 this time
output: no (0)

input: Same question, Nc1ccccc1CCCC(=O)O this time
output: no (0)

input: Same question, O=C1C(c2c(O)[nH]c3ccccc23)=Nc2ccc(Br)cc21 this time
output: no (0)

###

Reported values of GI50 for individual entries
Tested on: LOX IMVI
Test Protocol: NCI tumour cell line growth inhibition, 48 h
The source made the active and inactive calls. Cut-off read from the data, not from the text of the source: active = GI50 up to about 1.1 µM and inactive = higher.

Solved cases (4 shown):
INSERT INTO assay_data (structure_notation, obs_value) VALUES
  ('C/C(=C1/N=C(c2cc([N+](=O)[O-])ccc2Cl)N(C2=CC=C(Cl)CC2)C1=O)c1cc2ccccc2oc1=O', '20.4 µM (inactive)'),
  ('O=Cc1ccc(-c2ccc(S(=O)(=O)O)cc2)o1', '> 100 µM (inactive)'),
  ('Cc1cccc2c1C(=O)OC2(c1cccc2ccccc12)c1cccc2ccccc12', '> 100 µM (inactive)'),
  ('CCN(CC)c1nc(N(C)C)c2ccc(OC)cc2n1', '17.1 µM (inactive)');

input: Form field: GI50 recorded for C=CCNc1ccc(C)cc1 with LOX IMVI (enter value)
output: > 100 µM (inactive)

###

System: HL-60
Test Protocol: NCI tumour cell line growth inhibition, 48 h
The source made the active and inactive calls. Rule as the data show it: active = GI50 up to about 1.1 µM and inactive = higher.
Reported values of GI50 for individual entries

INSERT INTO assay_data (molecule, measurement_kind, obs_value) VALUES
  ('O=C(Nc1nc(C23CC4CC(CC(C4)C2)C3)cs1)c1cc2ccc(O)cc2oc1=O', 'GI50', '10.3 µM (inactive)'),
  ('CC/C=C/c1cc2c(c3[nH]ccc13)[C@@H](C)CC2C.CC/C=C/c1cc2cc[nH]c2c2c1C(C)C[C@@H]2C.CCc1cc2c(c3[nH]ccc13)[C@@H](C)CC2C (stereo not given in full)', 'GI50', '18.3 µM (inactive)');

input: What value of GI50 has been recorded for this entry: CCC(/C=C/c1ccccc1)=N\NC(=S)N/N=C(/C=C/c1ccccc1)CC
output: 19.6 µM (inactive)

input: Same question, COc1ccc(C(=O)c2c(C(C(=O)c3ccc(OC)cc3)C(=O)c3ccc(OC)cc3)n(C(=O)c3ccc(OC)cc3)c3ccccc23)cc1 this time
output: > 100 µM (inactive)

input: Same question, CN(C)C(=O)c1nnsc1NN=O this time
output: > 100 µM (inactive)

###

Reported values of GI50 for individual entries
Tested on: RPMI-8226
Test Protocol: NCI tumour cell line growth inhibition, 48 h
Active and inactive are the calls of the source. No stated cut-off is given here; in the data, active = GI50 up to about 1.1 µM and inactive = higher.

INSERT INTO results (molecule, measurement_kind, obs_value) VALUES
  ('C/C(=N\NC(=O)c1ccccc1O)c1cccc(/C(C)=N/NC(=O)c2ccccc2O)n1', 'GI50', '14.7 µM (inactive)'),
  ('Cc1n[nH]c(=S)n1/N=C/c1ccc(-c2ccc(Cl)cc2)o1', 'GI50', '> 100 µM (inactive)');

Read the next record carefully.
input: What value of GI50 has been recorded for this entry: Cc1nc(=O)[nH]c2c1C(=O)N(C(C)C)C(NC(C)C)S2 (stereo not drawn)
output: > 100 µM (inactive)
